# credit: ChEMBL document CHEMBL1150238

- Target or system: Regulatory protein E2 (Human papillomavirus type 1a, UniProt P03118)
- Sequence (P03118 whole entry): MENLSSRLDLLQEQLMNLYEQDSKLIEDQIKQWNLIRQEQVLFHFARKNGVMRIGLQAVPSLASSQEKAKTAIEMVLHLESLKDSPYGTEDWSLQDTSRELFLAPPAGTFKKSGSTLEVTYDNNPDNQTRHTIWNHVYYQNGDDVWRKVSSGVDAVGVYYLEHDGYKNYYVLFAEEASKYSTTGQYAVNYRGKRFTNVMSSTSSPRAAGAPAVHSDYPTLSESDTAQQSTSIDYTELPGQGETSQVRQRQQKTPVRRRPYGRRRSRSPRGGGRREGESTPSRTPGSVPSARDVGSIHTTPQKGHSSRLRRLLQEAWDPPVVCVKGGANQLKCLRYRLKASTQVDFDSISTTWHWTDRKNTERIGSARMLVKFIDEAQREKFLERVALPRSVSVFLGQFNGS
- Protocol text: Binding affinity to HPV1a recombinant E2 protein by surface plasmon resonance method
Listing of entries alongside the reported pKd.
The meaning of pKd here: minus log10 of the concentration in molar units.

COc1cc([C@@H]2c3cc4c(cc3[C@@H](O[C@@H]3O[C@@H]5CO[C@@H](C)O[C@H]5[C@H](O)[C@H]3O)[C@H]3COC(=O)[C@H]23)OCO4)cc(OC)c1O [ETOPOSIDE] ... 3.68

Then there is this compound:
Can you share its pKd? I mean this compound: `COc1cc([C@@H]2c3cc4c(cc3[C@H](O)[C@H]3COC(=O)[C@H]23)OCO4)cc(OC)c1OC`
4.62

* * *

- Target or system: Regulatory protein E2 (Human papillomavirus type 1a)
- Sequence (P03118 whole entry): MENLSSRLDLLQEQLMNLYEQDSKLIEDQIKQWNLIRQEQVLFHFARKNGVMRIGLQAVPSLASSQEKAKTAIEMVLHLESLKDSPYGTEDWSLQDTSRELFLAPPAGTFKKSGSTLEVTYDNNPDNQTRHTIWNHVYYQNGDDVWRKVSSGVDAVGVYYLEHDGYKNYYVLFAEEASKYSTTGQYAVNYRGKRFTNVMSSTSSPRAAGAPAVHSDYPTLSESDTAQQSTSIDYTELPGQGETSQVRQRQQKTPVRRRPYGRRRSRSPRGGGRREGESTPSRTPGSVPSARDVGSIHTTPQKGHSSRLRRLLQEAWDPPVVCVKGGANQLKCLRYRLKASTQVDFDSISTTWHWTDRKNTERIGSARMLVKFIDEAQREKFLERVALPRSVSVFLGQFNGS
- Protocol text: Binding affinity to HPV1a recombinant E2 protein hinge domain by surface plasmon resonance assay
Attribute measured: pKd
Keep in mind that pKd stands for -log10 of concentration in molar terms.

Would you kindly share the measured pKd for COc1cc([C@@H]2c3cc4c(cc3[C@H](O)[C@H]3COC(=O)[C@H]23)OCO4)cc(OC)c1OC [PODOFILOX] ?
5.98

* * *

- Target or system: Regulatory protein E2 (human papillomavirus 11, UniProt P04015)
- Sequence (P04015 whole entry): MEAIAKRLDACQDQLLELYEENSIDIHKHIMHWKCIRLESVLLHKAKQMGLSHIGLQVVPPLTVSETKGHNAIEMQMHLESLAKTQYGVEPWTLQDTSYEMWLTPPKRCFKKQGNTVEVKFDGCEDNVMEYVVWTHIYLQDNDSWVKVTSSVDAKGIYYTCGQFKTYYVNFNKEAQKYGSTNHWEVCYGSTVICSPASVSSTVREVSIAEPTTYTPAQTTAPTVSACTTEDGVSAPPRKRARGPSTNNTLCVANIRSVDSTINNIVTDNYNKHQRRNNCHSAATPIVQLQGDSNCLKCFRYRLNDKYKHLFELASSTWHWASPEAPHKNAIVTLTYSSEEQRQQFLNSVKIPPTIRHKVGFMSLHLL
- Protocol text: Binding affinity to HPV11 recombinant E2 protein by surface plasmon resonance method
Attribute measured: Kd (µM)
Response body: numeric value in µM, unit text excluded.

Given the compound COc1cc([C@@H]2c3cc4c(cc3[C@H](O)[C@H]3COC(=O)[C@H]23)OCO4)cc(OC)c1OC [PODOFILOX] , what is its reported Kd?
20.1
